# inhibition at 0.2 µM per record follows
# TESTED_ON: CDK4 (Homo sapiens, UniProt P11802+Q16531)
# ASSAY_COMMENT: CDK4 percentage degradation in Calu-1 cells (Table 6)
# Format: cell-based
# Set-up: Cells that express cyclin D1-3 and CDK4/6 proteins were treated with heterobifunctional compounds; endogenous in cells; host or cells: Calu-1
# CONDITION_DESCRIPTION: 200 nM, 16 hours
# Sequence (P11802 2-303 limits assumed): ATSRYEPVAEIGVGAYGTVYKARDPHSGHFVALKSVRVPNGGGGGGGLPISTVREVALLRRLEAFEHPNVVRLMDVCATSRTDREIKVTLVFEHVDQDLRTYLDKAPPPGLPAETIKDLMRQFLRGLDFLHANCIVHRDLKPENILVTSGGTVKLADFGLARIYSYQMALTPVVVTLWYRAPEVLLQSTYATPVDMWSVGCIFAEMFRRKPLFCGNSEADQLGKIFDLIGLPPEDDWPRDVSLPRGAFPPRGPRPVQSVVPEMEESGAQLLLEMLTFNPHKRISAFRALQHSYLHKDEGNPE
# Sequence (P24385 whole entry partner): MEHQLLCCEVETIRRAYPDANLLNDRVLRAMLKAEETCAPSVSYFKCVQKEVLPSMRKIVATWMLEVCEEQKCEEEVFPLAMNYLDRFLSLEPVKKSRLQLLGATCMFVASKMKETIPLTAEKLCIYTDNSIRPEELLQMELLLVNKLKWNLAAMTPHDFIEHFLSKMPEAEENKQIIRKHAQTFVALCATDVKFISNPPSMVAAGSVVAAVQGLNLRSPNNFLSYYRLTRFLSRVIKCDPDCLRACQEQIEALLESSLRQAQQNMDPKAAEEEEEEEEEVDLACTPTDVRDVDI
# Sequence (Q16531 2-1140 limits assumed): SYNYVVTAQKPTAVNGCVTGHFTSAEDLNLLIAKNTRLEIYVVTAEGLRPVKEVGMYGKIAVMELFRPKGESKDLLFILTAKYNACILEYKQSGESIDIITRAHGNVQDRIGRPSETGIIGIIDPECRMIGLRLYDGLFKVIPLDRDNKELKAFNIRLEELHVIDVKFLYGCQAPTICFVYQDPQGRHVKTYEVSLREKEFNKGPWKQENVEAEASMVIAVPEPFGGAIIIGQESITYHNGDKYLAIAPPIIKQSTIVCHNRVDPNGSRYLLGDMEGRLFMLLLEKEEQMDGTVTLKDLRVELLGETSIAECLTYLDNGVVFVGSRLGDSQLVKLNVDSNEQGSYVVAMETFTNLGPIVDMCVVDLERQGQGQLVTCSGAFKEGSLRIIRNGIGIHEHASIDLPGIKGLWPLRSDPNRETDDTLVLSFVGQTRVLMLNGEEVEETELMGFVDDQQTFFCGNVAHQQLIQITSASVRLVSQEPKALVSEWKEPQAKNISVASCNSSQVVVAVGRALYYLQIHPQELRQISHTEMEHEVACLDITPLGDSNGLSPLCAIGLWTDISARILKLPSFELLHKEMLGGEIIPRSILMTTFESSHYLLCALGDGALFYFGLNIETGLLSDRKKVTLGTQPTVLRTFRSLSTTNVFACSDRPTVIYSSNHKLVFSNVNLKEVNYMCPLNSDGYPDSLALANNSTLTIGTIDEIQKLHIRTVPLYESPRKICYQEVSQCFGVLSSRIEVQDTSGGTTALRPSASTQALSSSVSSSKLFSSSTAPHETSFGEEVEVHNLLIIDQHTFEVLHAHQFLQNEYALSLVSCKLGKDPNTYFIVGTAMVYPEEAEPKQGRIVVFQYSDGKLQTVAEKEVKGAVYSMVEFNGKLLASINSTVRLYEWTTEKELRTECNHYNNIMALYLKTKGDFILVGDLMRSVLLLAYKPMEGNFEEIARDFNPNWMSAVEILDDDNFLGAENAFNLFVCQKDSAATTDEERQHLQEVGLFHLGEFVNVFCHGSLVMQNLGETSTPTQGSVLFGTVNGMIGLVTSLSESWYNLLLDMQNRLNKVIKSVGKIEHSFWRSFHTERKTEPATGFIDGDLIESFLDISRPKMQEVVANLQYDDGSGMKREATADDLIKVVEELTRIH

- COMPOUND: "CNc1ccc(C(=O)Nc2cccc(C3CC3)n2)c(NC2CC(NC(=O)CN3CCN(c4ccc(Nc5ncc6c(C)c(C(C)=O)c(=O)n(C7CCCC7)c6n5)nc4)CC3)C2)n1 (centres unmarked)"
  inhibition at 0.2 µM: "30 to 50%"
- COMPOUND: "CNc1ccc(C(=O)Nc2ccc(N(C)C)nn2)c(NC2CC3(C2)CN(C(=O)CN2CCN(c4ccc(Nc5ncc6c(C)c(C(C)=O)c(=O)n(C7CCCC7)c6n5)nc4)CC2)C3)n1"
  inhibition at 0.2 µM: "> 80%"
- COMPOUND: "CC(=O)c1c(C)c2cnc(Nc3ccc(N4CCN(CC(=O)NC(C)CCCCNc5nc(C6CC6)ccc5C(=O)Nc5ccc(C)c(C6CC6)n5)CC4)cn3)nc2n(C2CCCC2)c1=O (centres unmarked)"
  inhibition at 0.2 µM: "50 to 80%"
- COMPOUND: "CNc1ccc(C(=O)Nc2ccc(OC)c(C)n2)c(NC2CC3(CC(NC(=O)CN4CCN(c5ccc(Nc6ncc7c(C)c(C(C)=O)c(=O)n(C8CCCC8)c7n6)nc5)CC4)C3)C2)n1 (centres unmarked)"
  inhibition at 0.2 µM: "50 to 80%"
- COMPOUND: "CNc1ccc(C(=O)Nc2ccn(C)n2)c(NC2CC3(C2)CN(C(=O)CCN2CCN(c4ccc(Nc5ncc6c(C)c(C(C)=O)c(=O)n(C7CCCC7)c6n5)nc4)CC2)C3)n1"
  inhibition at 0.2 µM: "> 80%"

* * *

# TESTED_ON: CDK4 (Homo sapiens, UniProt P11802+Q16531)
# ASSAY_COMMENT: HiBiT detection of HiBiT-tagged CDK4 protein level in MCF7 cells, 16 hours (Table 8)
# Assay type: cell-based
# Set-up: expressed in transfected cells; host or cells: MCF7
# CONDITION_DESCRIPTION: 10 nM, MCF7 cells stably expressing HiBiT tagged target proteins, read-out: % CDK4 Relative Level (10 nM)
# Sequence (P11802 whole entry): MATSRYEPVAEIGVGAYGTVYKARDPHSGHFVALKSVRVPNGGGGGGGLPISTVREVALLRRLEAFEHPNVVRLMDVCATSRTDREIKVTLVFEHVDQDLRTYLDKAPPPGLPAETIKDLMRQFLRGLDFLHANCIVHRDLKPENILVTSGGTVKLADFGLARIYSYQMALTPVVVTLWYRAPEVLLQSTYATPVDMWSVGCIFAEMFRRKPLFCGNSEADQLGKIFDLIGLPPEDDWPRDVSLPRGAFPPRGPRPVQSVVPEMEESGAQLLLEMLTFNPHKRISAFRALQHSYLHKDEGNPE
# Sequence (P24385 whole entry partner): as the sequence (P24385 whole entry partner) above
# Sequence (Q16531 2-1140 limits assumed): as the sequence (Q16531 2-1140 limits assumed) above

- COMPOUND: "CC(=O)c1c(C)c2cnc(Nc3ccc(N4CCN(C5CCN(C(=O)[C@H]6CC[C@H](Nc7nc(NC(C)C)ccc7C(=O)Nc7cn(C)c(C8CC8)n7)CC6)C5)CC4)cn3)nc2n(C2CCCC2)c1=O (some centres unmarked)"
  TESTED_ON: "CDK4 (Homo sapiens, UniProt P11802+Q16531)"
  activity at 0.01 µM: "> 85%"
- COMPOUND: "CNc1ccc(C(=O)Nc2ccc(N(C)C)nn2)c(NCCNC(=O)CN2CCN(c3ccc(Nc4ncc(F)c(-c5cc(F)c6nc(C)n(C(C)C)c6c5)n4)nc3)CC2)n1"
  TESTED_ON: "CDK4 (Homo sapiens, UniProt P11802+Q16531)"
  activity at 0.01 µM: "> 85%"
- COMPOUND: "CC(=O)c1c(C)c2cnc(Nc3ccc(N4CCN(C5CCN(C(=O)C67CC(Nc8nc(C(C)C)ccc8C(=O)Nc8ccc(N(C)C)nn8)(C6)C7)C5)CC4)cn3)nc2n(C2CCCC2)c1=O (centres unmarked)"
  TESTED_ON: "CDK4 (Homo sapiens, UniProt P11802+Q16531)"
  activity at 0.01 µM: "55 to 85%"
- COMPOUND: "CC(C)Nc1ccc(C(=O)Nc2ccc(N(C)C)nn2)c(NC2CC3(C2)CN(C(=O)CN2CCN(Cc4ccc(Nc5ncc6cc7n(c6n5)C5(CCCCC5)CNC7=O)nc4)CC2)C3)n1"
  TESTED_ON: "CDK4 (Homo sapiens, UniProt P11802+Q16531)"
  activity at 0.01 µM: "> 85%"
- COMPOUND: "CC(=O)c1c(C)c2cnc(Nc3ccc(N4CCN(CC(=O)NC5CC6(C5)CC(Nc5nc(NC(C)C)ccc5C(=O)Nc5cc(C)n(C)n5)C6)CC4)cn3)nc2n(C2CCCC2)c1=O (centres unmarked)"
  TESTED_ON: "CDK4 (Homo sapiens, UniProt P11802+Q16531)"
  activity at 0.01 µM: "> 85%"
- COMPOUND: "CC(=O)c1c(C)c2cnc(Nc3ccc(N4CCN(CCNC(=O)C56CC(Nc7nc(NC(C)C)ccc7C(=O)Nc7ccc(N(C)C)nn7)(C5)C6)CC4)cn3)nc2n(C2CCCC2)c1=O"
  TESTED_ON: "CDK4 (Homo sapiens, UniProt P11802+Q16531)"
  activity at 0.01 µM: "> 85%"
- COMPOUND: "CC(C)Nc1ccc(C(=O)Nc2ccc(N(C)C)nn2)c(NC2CC3(CC(NC(=O)CN4CCN(Cc5ccc(Nc6ncc7cc(C(=O)N(C)C)n(C8CCCC8)c7n6)nc5)CC4)C3)C2)n1 (centres unmarked)"
  TESTED_ON: "CDK4 (Homo sapiens, UniProt P11802+Q16531)"
  activity at 0.01 µM: "> 85%"
- COMPOUND: "CC(=O)c1c(C)c2cnc(Nc3ccc(N4CCC(N(C)CC(=O)N5CCC(Nc6nc(NC(C)C)ccc6C(=O)Nc6ccc(N(C)C)nn6)CC5)CC4)cn3)nc2n(C2CCCC2)c1=O"
  TESTED_ON: "CDK4 (Homo sapiens, UniProt P11802+Q16531)"
  activity at 0.01 µM: "55 to 85%"
- COMPOUND: "CNc1ccc(C(=O)Nc2ccc(N(C)C)nn2)c(NCCCCCCC(=O)N2CCN(c3ccc(Nc4ncc5cc6n(c5n4)C4(CCCCC4)CNC6=O)nc3)CC2)n1"
  TESTED_ON: "CDK4 (Homo sapiens, UniProt P11802+Q16531)"
  activity at 0.01 µM: "55 to 85%"
- COMPOUND: "CC(=O)c1c(C)c2cnc(Nc3ccc(N4CCN(CCC(=O)N5CC6(CC(Nc7nc(NC(C)C)ccc7C(=O)Nc7ccc(N(C)C)nn7)C6)C5)CC4)cn3)nc2n(C2CCCC2)c1=O"
  TESTED_ON: "CDK4 (Homo sapiens, UniProt P11802+Q16531)"
  activity at 0.01 µM: "55 to 85%"
- COMPOUND: "CNc1ccc(C(=O)Nc2ccc(N(C)C)nn2)c(NCCNC(=O)CN2CCN(c3ccc(Nc4ncc5cc6n(c5n4)C4(CCCCC4)CNC6=O)nc3)CC2)n1"
  TESTED_ON: "CDK4 (Homo sapiens, UniProt P11802+Q16531)"
  activity at 0.01 µM: "> 85%"
- COMPOUND: "CC(=O)c1c(C)c2cnc(Nc3ccc(N4CCN(C5CCN(C(=O)C67CC(Nc8nc(NC(C)C)ccc8C(=O)Nc8cn(C)c(C9CC9)n8)(C6)C7)C5)CC4)cn3)nc2n(C2CCCC2)c1=O (centres unmarked)"
  TESTED_ON: "CDK4 (Homo sapiens, UniProt P11802+Q16531)"
  activity at 0.01 µM: "55 to 85%"
- COMPOUND: "CC(=O)c1c(C)c2cnc(Nc3ccc(N4CCN(CC(=O)NCC56CC(Nc7nc(NC(C)C)ccc7C(=O)Nc7ccc(N(C)C)nn7)(C5)C6)CC4)cn3)nc2n(C2CCCC2)c1=O"
  TESTED_ON: "CDK4 (Homo sapiens, UniProt P11802+Q16531)"
  activity at 0.01 µM: "55 to 85%"
- COMPOUND: "CCc1ccc(C(=O)Nc2ccc(N(C)C)nn2)c(N[C@H]2CC[C@H](C(=O)N3CCC(N4CCN(c5ccc(Nc6ncc7c(C)c(C(C)=O)c(=O)n(C8CCCC8)c7n6)nc5)CC4)C3)CC2)n1 (some centres unmarked)"
  TESTED_ON: "CDK4 (Homo sapiens, UniProt P11802+Q16531)"
  activity at 0.01 µM: "> 85%"
- COMPOUND: "CNc1ccc(C(=O)Nc2ccc(N(C)C)nn2)c(NCCCCCNC(=O)CN2CCN(Cc3ccc(Nc4ncc(F)c(-c5cc(F)c6nc(C)n(C(C)C)c6c5)n4)nc3)CC2)n1"
  TESTED_ON: "CDK4 (Homo sapiens, UniProt P11802+Q16531)"
  activity at 0.01 µM: "> 85%"
- COMPOUND: "CC(=O)c1c(C)c2cnc(Nc3ccc(N4CCN(C(C)CC(=O)N5CC6(CC(Nc7nc(NC(C)C)ccc7C(=O)Nc7cn(C)c(C8CC8)n7)C6)C5)CC4)cn3)nc2n(C2CCCC2)c1=O (centres unmarked)"
  TESTED_ON: "CDK4 (Homo sapiens, UniProt P11802+Q16531)"
  activity at 0.01 µM: "55 to 85%"
- COMPOUND: "CC(=O)c1c(C)c2cnc(Nc3ccc(N4CCN(C5CCN(C(=O)[C@H]6CC[C@H](Nc7nc(NC(C)C)ccc7C(=O)Nc7cc8n(n7)CCC8)CC6)C5)CC4)cn3)nc2n(C2CCCC2)c1=O (some centres unmarked)"
  TESTED_ON: "CDK4 (Homo sapiens, UniProt P11802+Q16531)"
  activity at 0.01 µM: "> 85%"
- COMPOUND: "CC(=O)c1c(C)c2cnc(Nc3ccc(CN4CCN(CC(=O)NC5CCC(Nc6nc(NC(C)C)ccc6C(=O)Nc6ccc(N(C)C)nn6)CC5)CC4)cn3)nc2n(C2CCCC2)c1=O (centres unmarked)"
  TESTED_ON: "CDK4 (Homo sapiens, UniProt P11802+Q16531)"
  activity at 0.01 µM: "> 85%"
- COMPOUND: "CNc1ccc(C(=O)Nc2ccc(N(C)C)nn2)c(NCCCCCCNC(=O)CN2CCN(c3ccc(Nc4ncc(F)c(-c5cc(F)c6nc(C)n(C(C)C)c6c5)n4)nc3)CC2)n1"
  TESTED_ON: "CDK4 (Homo sapiens, UniProt P11802+Q16531)"
  activity at 0.01 µM: "> 85%"
- COMPOUND: "CNc1ccc(C(=O)Nc2ccc(N(C)C)nn2)c(NCCCCC(=O)N2CCN(c3ccc(Nc4ncc(F)c(-c5cc(F)c6nc(C)n(C(C)C)c6c5)n4)nc3)CC2)n1"
  TESTED_ON: "CDK4 (Homo sapiens, UniProt P11802+Q16531)"
  activity at 0.01 µM: "> 85%"
